Tested on: UO-31
Experiment: NCI tumour cell line growth inhibition, 48 h
The source made the active and inactive calls. Cut-off read from the data, not from the text of the source: active = GI50 up to about 1.1 µM and inactive = higher.
reported.endpoint: GI50

INSERT INTO assay_data (compound, recorded_result) VALUES
  ('CCOC(=O)CCC(C(=O)OCC)n1nc2ccc(Nc3c(C)[n+]([O-])c4cc(Cl)ccc4[n+]3[O-])cc2n1 (stereo not given)', '81.8 µM (inactive)'),
  ('CCC(=O)Nc1ccc(NS(=O)(=O)c2ccc(Cl)cc2)cc1', '> 100 µM (inactive)'),
  ('CCOC(=O)[C@@H]1[C@@H]2NC(=O)N[C@@]1(C)Oc1ccccc12', '> 100 µM (inactive)'),
  ('Cc1cnc(/N=c2\sc(C)cn2-c2ncc(C)s2)s1', '> 100 µM (inactive)'),
  ('CC(=O)N1c2cc(/N=N/N(C)C)ccc2NC(=O)CC1C (stereo not given)', '> 100 µM (inactive)');

====

Reported values of GI50 for individual entries
Tested on: DMS-114
Experiment: NCI tumour cell line growth inhibition, 48 h
Calls of active or inactive are those of the source. Rule as the data show it: active = GI50 up to about 1.1 µM and inactive = higher.
reported.endpoint: GI50

INSERT INTO results (compound, target_or_test_system, reported_endpoint, recorded_result) VALUES
  ('Oc1ccc2c(c1)CC[N+]1=C2CCC2CCCC21 (stereo not given) [QUINDONIUM BROMIDE]', 'DMS-114', 'GI50', '> 100 µM (inactive)'),
  ('NCCSCC(N)C(=O)O (stereo not given)', 'DMS-114', 'GI50', '> 497 µM (inactive)'),
  ('O=C(O)C12CCCCC1CCCC2 (stereo not given)', 'DMS-114', 'GI50', '> 100 µM (inactive)'),
  ('CC1(C)CC[C@]2(C(=O)O)CCC3(C)C(=CCC4[C@@]5(C)CC[C@H](OC6OCC(O)C(O)C6OC6OC(CO)C(O)C(O)C6O)C(C)(C)C5CC[C@]43C)C2C1 (stereo not given in full)', 'DMS-114', 'GI50', '2.04 µM (inactive)'),
  ('COC(=O)C1(C)C=C(Nc2ccccc2)C(=O)N1c1ccccc1 (stereo not given)', 'DMS-114', 'GI50', '> 100 µM (inactive)'),
  ('CCCCCCn1c(SCC)c2ccccc2c1-c1nc(F)nc(F)n1', 'DMS-114', 'GI50', '> 100 µM (inactive)'),
  ('COc1ccc2c(c1)c1ccc3c(c1n2C)C(=O)C=CC3=O', 'DMS-114', 'GI50', '20.7 µM (inactive)'),
  ('CCCCCCCCCCCCC(SCCNC(=O)CCNC(=O)C(O)C(C)(C)COP(=O)(O)OP(=O)(O)OCC1OC(n2cnc3c(N)ncnc32)C(O)C1OP(=O)(O)O)C(=O)NCC(N)=O (stereo not given)', 'DMS-114', 'GI50', '95.1 µM (inactive)'),
  ('CN(C)CCCN1N=Nc2cccc3cccc1c23', 'DMS-114', 'GI50', '> 42.1 µM (inactive)'),
  ('Cc1cc(N(CCC#N)CCC#N)ccc1/C=C/C(=O)Nc1cccc(Cl)c1', 'DMS-114', 'GI50', '> 100 µM (inactive)');

====

System: RPMI-8226
Test: NCI tumour cell line growth inhibition, 48 h
Active and inactive are the calls of the source. Cut-off read from the data, not from the text of the source: active = GI50 up to about 1.1 µM and inactive = higher.
Labels: active, inactive

INSERT INTO assay_data (molecule, class_label) VALUES
  ('CC1(C)CC(=O)C2=C(C1)OC1=C(CC(C)(C)CC1=O)C2c1ccccc1[N+](=O)[O-] (stereo not given)', 'inactive'),
  ('C[C@H](c1ccccc1)n1c(N)c(-c2nc3ccccc3s2)c2ccc([N+](=O)[O-])cc2c1=O', 'active'),
  ('O=C(O)C1CCCCN1C(=O)Cc1c[nH]c2ccccc12 (stereo not given)', 'inactive'),
  ('CC(=O)O[C@H]1CC[C@@]2(C)C(=CC[C@@H]3[C@@H]2CC[C@]2(C)c4nc(N)c(C#N)cc4C[C@@H]32)C1', 'inactive'),
  ('COC(=O)/C=C1/CCC(C(=O)OC)N1 (stereo not given)', 'inactive'),
  ('O=c1c2cc3c(cc2c2cccc4c2n1CCC4)OCO3', 'inactive'),
  ('COC(OC)[C@@H](C)[C@H](O)[C@](C)(O)C1OC(C)(C)OC(C(C)C=C(C)C)C1C (stereo not given in full)', 'inactive'),
  ('c1ccc(CSC2(SCc3ccccc3)CCCC2)cc1', 'inactive'),
  ('O=C(O)Cc1cc(F)ccc1C(=O)O', 'inactive'),
  ('Nc1ncnc2c1ncn2-c1ccc([N+](=O)[O-])cn1', 'inactive');
